Entry source: PubChem BioAssay (NCATS)

system: DIV30; test: qHTS profiling for inhibitors of Plasmodium falciparum proliferation (AID 504749); note: nearly all actives have a fitted effect of over 60% in size; note: potency is the fitted concentration of half-maximal effect; settings: P. falciparum in erythrocytes, SYBR Green DNA, 72 h; series mostly up to 28.7 µM
Records with an inconclusive call do not appear. Activity calls are given as the source filed them. Calls come from the whole dose curve; as a rule, active = well fitted inhibition curve with a large enough effect; inconclusive = small, poorly fitted or top-dose-only effect; inactive = flat fitted curve, though single readings scatter.
endpoint: Potency

Sample answers from the record:
                                   compound  endpoint    recorded_value
0  Cc1ccccc1CNc1ncnc2c1ncn2C1OC(CO)C(O)C1O (stereo not given)   Potency          inactive
1                      Nc1ccc(C(=O)O)c(O)c1   Potency          inactive
2      Cc1[nH]cnc1CN1CCc2c(c3ccccc3n2C)C1=O   Potency          inactive
3  COC(=O)C1=C(C)NC(C)=C(C(=O)OCC(C)C)C1c1ccccc1[N+](=O)[O-] (stereo not given)   Potency  16.9 µM (active)
4                O=C(O)Cc1ccc(-c2ccccc2)cc1   Potency          inactive

Enquiry: Please give the measured Potency for this compound: CC1(C)C[C@@H]1C(=O)N/C(=C\CCCCSC[C@H](N)C(=O)O)C(=O)O
Return: inactive

Enquiry: Would you kindly repeat that for O=C(Nc1ccc(C(=O)O)c(O)c1)c1ccccc1 ?
Return: inactive

Enquiry: Thanks! And CCC1C(=O)OCC1Cc1cncn1C (stereo not given) ?
Return: inactive

Enquiry: Another compound: CCCCCCOc1ccccc1C(N)=O
Return: inactive

Enquiry: Repeat for the following compound: Cc1ccc(O)c(-n2nc3ccccc3n2)c1
Return: inactive

Enquiry: Moving on to Oc1c(Br)cc(Br)c2cccnc12
Return: inactive
